Origin of the recorded values: PubChem BioAssay AID449762

experiment: M. tuberculosis growth inhibition, HTS (AID 449762);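 also: bacterial growth assessed after seven days of incubation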; conditions: M. tuberculosis H37Rv growth inhibition, 7H9 media; at 25 µM; stronger effect = higher value
About 1,900 (0.58%) of roughly 330,000 compounds were called active. About 4% were inconclusive and are not listed. Only a sample is shown. Results with a measured potency or affinity are listed apart.
Exercise: for every item that follows, state its recorded inhibition.
Numbers only, in %.

Go through the items and report each one's inhibition.
1. Cc1ccc(NC(=O)Cn2cccc2)cc1
2. O=C(NCc1ccccn1)C(=O)Nc1nc(-c2ccccc2)cs1
3. FC(F)(F)c1ccc(C2[C@H]3CN(CC4CCCCC4)[C@H](c4ccccc4)C34CC2(c2cccnc2)C4)cc1 (stereo partly specified)
4. O=c1ccsn1Cc1ccccc1
5. COc1ccccc1OP(=O)(Nc1cccnc1)Oc1ccccc1OC
6. CCc1ccc(/C=C2/Sc3ccccc3N(CC(=O)NCCCN3CCOCC3)C2=O)cc1
7. COCCCN1C(=O)c2ccc(C(=O)N3CCN(c4ccc(OC)cc4)CC3)cc2C1=O
8. Cc1csc(NC(=O)CSCC(=O)O)c1-c1nc2ccccc2s1

[3.9, 55.8, 58, 2.59, -4.39, 38.4, 0.38, -1.68]

---

Kindly state inhibition for each of the entries shown.
assay: M. tuberculosis growth inhibition, HTS (AID 449762);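 also: bacterial growth assessed after seven days of incubation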; settings: M. tuberculosis H37Rv growth inhibition, 7H9 media; at 25 µM; stronger effect = higher value
In all, about 330,000 compounds went through this assay and about 1,900 (0.58%) were called active. About 4% were inconclusive and are not listed. The list is a sample of the results. Results with a measured potency or affinity are listed apart.
Answers are plain numbers, in %.

Record excerpt, results attached:
compound	endpoint_value
CCOc1ccccc1NC(=O)COC(=O)CC(NC(N)=O)c1ccc(Cl)cc1 (stereo not given)	3.03
COc1cc(/C=N\NC(=O)c2ccc(Cl)cc2)ccc1Oc1ccc([N+](=O)[O-])cn1	-6.52
Cc1nn(Cc2ccccc2)c(C)c1C(=O)OCC(=O)c1cc(C)n(C2CC2)c1C	63.9
COCCn1c(C)cc(C(=O)COC(=O)c2c(C)nn(Cc3ccccc3)c2C)c1C	20.6

Let us examine a further case.
Please supply the value of reported inhibition for the item Cc1nnc(NC(=O)c2csc3c2CCC(C)C3)s1 (stereo not given)
6.53

---

assay: M. tuberculosis growth inhibition, HTS (AID 449762);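 also: bacterial growth assessed after seven days of incubation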; conditions: M. tuberculosis H37Rv growth inhibition, 7H9 media; at 25 µM; stronger effect = higher value
Hit rate of the full screen: of about 330,000 compounds, about 1,900 (0.58%) were called active. Another 4% or so got no clear call; they are omitted. The list is a sample of the results. Measured potencies and affinities stand elsewhere.
What inhibition was measured for each of the following?
Give bare numbers, in %.

Previously resolved entries follow.
molecule	unit_tag	inhibition
Cc1cc(=O)oc2ccc(OCC(=O)N3CCc4ccccc43)cc12	%	-7.76
CCOC(=O)N1CCN(C(=O)/C(=C/c2ccc(OC)cc2)NC(=O)c2ccccc2)CC1	%	1.93
CC(=O)OCC1OC(n2ccc3ccccc32)C(OC(C)=O)C(OC(C)=O)C1OC(C)=O (configuration not stated)	%	-6.94
CCN(CC)CCCN(Cc1cc2cc3c(cc2[nH]c1=O)OCO3)C(=S)Nc1ccccc1OC	%	-4.51

Would you mind giving inhibition for every molecule in the list below?
1. N=C1C(c2nc3ccccc3s2)=C(O)CN1NC(=O)c1c[nH]c2ccccc12
2. CC1CCc2sc(C(=O)NC3CCCCC3)cc2C1 (configuration not stated)

[-0.06, -9.17]

Batch: inhibition for all items listed.
1. CC12CCC(=O)N1C(C(=O)N1CCN(c3ccc(C(F)(F)F)cc3[N+](=O)[O-])CC1)CS2 (configuration not stated)
2. CC12CCC(=O)N1C(C(=O)Nc1ccc(F)cc1)CS2 (configuration not stated)
3. COC(=O)c1cccc(NC(=O)Cc2ccccc2[N+](=O)[O-])c1C
4. O=C(O/N=C1/CCCc2occc21)c1ccccc1
5. CC(=N\NC(=O)c1ccccc1)/C(=N/O)C(=O)Nc1ccccc1
6. CNC(=O)c1cc2c(s1)CCCCCC2

4.09
-9.52
2.19
6.31
19.5
-5.87

Could you tell me inhibition for each of these molecules? They are listed below.
1. COc1ccc(NC(=O)c2ccc3c(=O)n(-c4ccc(OC)cc4OC)c(=S)[nH]c3c2)c(OC)c1
2. CCOC(=O)N1CCN(c2ccc(Cl)c(Cl)c2)CC1
3. O=c1/c(=C\c2ccc(O)cc2)sc2nc(-c3ccccc3)c(-c3ccccc3)n12
4. COc1ccc(NC(=O)C2CCN(c3cc(-c4ccccc4)nc4ncnn34)CC2)cc1OC
5. COc1cc(CNCCO)cc(Cl)c1OCc1ccccc1Cl
6. CC(C)C(=O)N=c1sc2cc(F)cc(F)c2n1C
7. Cc1c(O)ccc2c(O)c(NC(=O)c3ccc4c(c3)CCC(C)(C)O4)c(=O)oc12
8. Cc1ccccc1OCCn1cc(C(=O)O)c2ccccc21

1: 40; 2: -2.84; 3: -4.61; 4: -9.41; 5: 1.99; 6: -9.4; 7: 1.87; 8: -0.94

Quick request: inhibition for each listed item, please.
1. Oc1c(C(c2cccs2)N2CCN(c3ccccc3)CC2)ccc2cccnc12 (configuration not stated)
2. Oc1c(C(c2ccccn2)N2CCCCC2)cc(Cl)c2cccnc12 (configuration not stated)

1: 30.5; 2: 3
